As shown below, each of these sequences has a reported shrunken log2 fold change value.
test system: Escherichia coli TOP10; experiment: shrunken log2 fold change of peptide-encoding DNA abundance (4.5 h post-induction vs induction); higher = less antimicrobial activity (less host growth inhibition); settings: time post-induction: 4.5 h; library: site-saturation at positions 5, 18, 19, 20;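 also: peptides expressed intracellularly from a pBAD plasmid library in pooled LB shake-flask culture, induced with 0.3% L-arabinose, DNA abundance read by NGS, three biological replicates, DESeq2 with apeglm shrinkage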
Form: value (number only, do not type unit).

The examples below pair each entry with its known result.
- RRIRWRPPRLPRPRPRPMENPRP: 0.0913
- RRIRMRPPRLPRPRPRPMVAPRP: 0.12
- RRIRLRPPRLPRPRPRPPLLPRP: 0.158

Q: Report shrunken log2 fold change, nothing else, for this sequence: RRIRFRPPRLPRPRPRPEWDPRP
A: 0.168

Q: Report shrunken log2 fold change, nothing else, for this sequence: RRIRWRPPRLPRPRPRPMCRPRP
A: -0.117

Q: Report shrunken log2 fold change, nothing else, for this sequence: RRIRKRPPRLPRPRPRPIGSPRP
A: -0.0113

Q: Report shrunken log2 fold change, nothing else, for this sequence: RRIRSRPPRLPRPRPRPFTWPRP
A: -0.24

Q: Report shrunken log2 fold change, nothing else, for this sequence: RRIRLRPPRLPRPRPRPERTPRP
A: 0.098

Q: Report shrunken log2 fold change, nothing else, for this sequence: RRIRHRPPRLPRPRPRPNWVPRP
A: -0.126

Q: Report shrunken log2 fold change, nothing else, for this sequence: RRIRDRPPRLPRPRPRPWLNPRP
A: -0.277

Q: Report shrunken log2 fold change, nothing else, for this sequence: RRIRLRPPRLPRPRPRPHATPRP
A: -0.0435

Q: Report shrunken log2 fold change, nothing else, for this sequence: RRIRKRPPRLPRPRPRPMTGPRP
A: 0.0188
